targetOfAssay: MycN (Homo sapiens, UniProt P04198)
Construct: endogenous in cells; host or cells: SK-N-BE(2)
Sequence (P04198 1-464): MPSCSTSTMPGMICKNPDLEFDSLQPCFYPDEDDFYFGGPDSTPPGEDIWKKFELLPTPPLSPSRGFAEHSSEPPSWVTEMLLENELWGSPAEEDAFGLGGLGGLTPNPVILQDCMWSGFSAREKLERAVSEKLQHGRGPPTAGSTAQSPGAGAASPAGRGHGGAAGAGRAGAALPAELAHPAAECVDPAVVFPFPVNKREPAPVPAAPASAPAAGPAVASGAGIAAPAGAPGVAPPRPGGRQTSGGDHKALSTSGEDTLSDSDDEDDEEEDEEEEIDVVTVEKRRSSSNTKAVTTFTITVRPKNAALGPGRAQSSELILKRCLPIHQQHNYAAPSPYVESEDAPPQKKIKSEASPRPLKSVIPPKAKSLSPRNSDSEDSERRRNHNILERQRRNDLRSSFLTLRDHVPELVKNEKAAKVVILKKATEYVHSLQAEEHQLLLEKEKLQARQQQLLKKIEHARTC
assayText: Degradation of MycN protein in SK-N-BE(2) cells, JESS/Western blot of lysates
Assay type: cell-based
conditionContext: SKNBE2, 24 h, SKNBE2 cells, 24 h, 6 μM; read-out: % Degradation of MycN (SKNBE2) 24 h, 6 μM
measuredMetric: Dmax at 6 µM

NC[C@H]1CN(c2nccc(Nc3cc(C4CCCC4)[nH]n3)n2)C[C@H]1F [Compound 123-2] has a reported Dmax at 6 µM of 80 to 100%

###

Listing of entries alongside the reported Dmax at 1 µM.
targetOfAssay: MycC (Homo sapiens, UniProt P01106)
Construct: endogenous in cells; host or cells: L363
Sequence (P01106 whole entry): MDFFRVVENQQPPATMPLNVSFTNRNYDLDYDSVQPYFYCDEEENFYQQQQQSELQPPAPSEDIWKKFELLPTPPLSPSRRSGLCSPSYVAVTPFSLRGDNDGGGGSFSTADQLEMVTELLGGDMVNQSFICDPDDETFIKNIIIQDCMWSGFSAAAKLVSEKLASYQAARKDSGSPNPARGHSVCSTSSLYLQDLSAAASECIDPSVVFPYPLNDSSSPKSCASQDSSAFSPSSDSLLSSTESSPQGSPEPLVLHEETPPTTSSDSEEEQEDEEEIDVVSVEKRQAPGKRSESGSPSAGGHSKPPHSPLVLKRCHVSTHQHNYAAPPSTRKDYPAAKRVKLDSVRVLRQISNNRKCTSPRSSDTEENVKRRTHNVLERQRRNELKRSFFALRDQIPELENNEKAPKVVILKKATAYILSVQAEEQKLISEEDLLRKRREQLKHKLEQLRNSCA
assayText: Degradation of MycC protein in L363 cells, JESS/Western blot of lysates
Format: cell-based
conditionContext: L-363, 24 h, L-363 cells, 24 h, 1 μM; read-out: % Degradation of MycC (L-363) 24 h, 1 μM

Please review the entries below; each comes with its answer.
molecule: CN(C)C[C@H]1CCN(c2nccc(Nc3cc(C4CCCC4)[nH]n3)n2)C1
experimentalResult: < 20%
//
molecule: c1cc(Nc2cc(C3CCCC3)[nH]n2)nc(N2CC3(CCCNC3)C2)n1
experimentalResult: < 20%
//
molecule: NC[C@@H]1CN(c2nccc(Nc3cc(C4CCCC4)[nH]n3)n2)C[C@@H]1F
experimentalResult: 20 to 49%
//
molecule: CN1CC(C2CCN(c3nccc(Nc4cc(C5CCCC5)[nH]n4)n3)C2)C1 (stereo not shown)
experimentalResult: 20 to 49%
//
molecule: NCC12CCC(C1)N(c1nccc(Nc3cc(C4CC4)[nH]n3)n1)C2 (stereo not shown)
experimentalResult: 80 to 100%

Consider the record given below.
"NC[C@H]1CCCN(c2nccc(Nc3cc(C4CC4)[nH]n3)n2)C1" has a reported Dmax at 1 µM of 50 to 79%

###

targetOfAssay: MycC (Homo sapiens)
Construct: endogenous in cells; host or cells: L363
assayText: Degradation of MycC protein in L363 cells, JESS/Western blot of lysates
Format: cell-based
conditionContext: L-363, 24 h, L-363 cells, 24 h, 3 μM; read-out: % Degradation of MycC (L-363) 24 h, 3 μM
Listing of entries alongside the reported Dmax at 3 µM.

Please review the entries below; each comes with its answer.
molecule: CNC[C@H]1CCCN(c2nccc(Nc3cc(C4CC4)[nH]n3)n2)C1
Dmax at 3 µM: < 20%
--
molecule: CN1CCC2(C1)CN(c1nccc(Nc3cc(C4CC4)[nH]n3)n1)C2
Dmax at 3 µM: < 20%
--
molecule: CNCC12CC(C1)N(c1nccc(Nc3cc(C4CC4)[nH]n3)n1)C2
Dmax at 3 µM: 80 to 100%
--
molecule: CN1CC2(CCCN(c3nccc(Nc4cc(C5CCCC5)[nH]n4)n3)C2)C1
Dmax at 3 µM: < 20%
--
molecule: NC[C@@H]1CN(c2nccc(Nc3cc(C4CCCC4)[nH]n3)n2)C[C@@H]1F
Dmax at 3 µM: 80 to 100%
--
molecule: CN[C@H]1CCN(c2nccc(Nc3cc(C4CC4)[nH]n3)n2)C1
Dmax at 3 µM: 20 to 49%
--
molecule: O=C1c2ccccc2C(=O)N1CC12CC(CN(c3nccc(Nc4cc(C5CC5)[nH]n4)n3)C1)C2
Dmax at 3 µM: 80 to 100%
--
molecule: CN1CC(C2CCN(c3nccc(Nc4cc(C5CC5)[nH]n4)n3)C2)C1 (centres unmarked)
Dmax at 3 µM: < 20%

"c1cc(Nc2cc(C3CC3)[nH]n2)nc(N2C[C@H]3CNC[C@H]3C2)n1" has a reported Dmax at 3 µM of < 20%

"c1cc(Nc2cc(C3CC3)[nH]n2)nc(N2CC3(CCCNC3)C2)n1" has a reported Dmax at 3 µM of < 20%

"CNCC12CC(C1)N(c1nccc(Nc3cc(C4CCC4)[nH]n3)n1)C2" has a reported Dmax at 3 µM of 80 to 100%

"CN(C)CC1CCN(c2nccc(Nc3cc(C4CC4)[nH]n3)n2)CC1" has a reported Dmax at 3 µM of 20 to 49%

NCC12CCC(C1)N(c1nccc(Nc3cc(C4CC4)[nH]n3)n1)C2 (centres unmarked) has a reported Dmax at 3 µM of 80 to 100%

"CN(C)CC12CC(C1)N(c1nccc(Nc3cc(C4CC4)[nH]n3)n1)C2" has a reported Dmax at 3 µM of < 20%
